# Test system: NF-κB
# methodDescription: NF-κB assay for inflammation (nuclear translocation of NF-κB, immunocytochemistry, PCC)
# measurementSetup: HeLa cells, 40 nM, 2 h; PCC between nuclear and cytoplasmic fraction of NF-κB

[
  {
    "compound": "OB(O)c1cccc(O)c1 [3-hydroxyphenylboronic acid]",
    "Inflammation (PCC) 40 nM": "−0.1136"
  },
  {
    "compound": "OB(O)c1cc(Br)cs1",
    "Inflammation (PCC) 40 nM": "−0.1162"
  },
  {
    "compound": "OB(O)c1cnc(OCc2ccccc2)nc1OCc1ccccc1",
    "Inflammation (PCC) 40 nM": "−0.0647"
  },
  {
    "compound": "CN(C)c1cccc(B(O)O)c1",
    "Inflammation (PCC) 40 nM": "−0.1236"
  },
  {
    "compound": "OB(O)/C=C/c1ccccc1 [trans-2-Phenylvinylboronic acid]",
    "Inflammation (PCC) 40 nM": "−0.1303"
  },
  {
    "compound": "OB(O)c1cc2ccccc2nc1Cl",
    "Inflammation (PCC) 40 nM": 0.08644
  },
  {
    "compound": "OB(O)C1=CCCC1",
    "Inflammation (PCC) 40 nM": "−0.0551"
  },
  {
    "compound": "O=C(Cl)c1ccc(B2OB(c3ccc(C(=O)Cl)cc3)OB(c3ccc(C(=O)Cl)cc3)O2)cc1 [4-chlorocarbonylphenylboronic anhydride]",
    "Inflammation (PCC) 40 nM": "−0.0664"
  },
  {
    "compound": "O=c1[nH]cc(B(O)O)c(=O)[nH]1",
    "Inflammation (PCC) 40 nM": "−0.0586"
  },
  {
    "compound": "N#Cc1ccc(B(O)O)cc1",
    "Inflammation (PCC) 40 nM": "−0.0705"
  },
  {
    "compound": "OB(O)c1ccccc1Cl",
    "Inflammation (PCC) 40 nM": "−0.0957"
  },
  {
    "compound": "Cc1noc(C)c1B(O)O",
    "Inflammation (PCC) 40 nM": "−0.061"
  },
  {
    "compound": "COc1ccc(F)cc1B(O)O",
    "Inflammation (PCC) 40 nM": "−0.0169"
  },
  {
    "compound": "OB(O)c1cccnc1Br",
    "Inflammation (PCC) 40 nM": "−0.0553"
  },
  {
    "compound": "OB(O)c1ccccc1O [2-hydroxyphenylboronic acid]",
    "Inflammation (PCC) 40 nM": "−0.0198"
  },
  {
    "compound": "OB(O)c1cnn(Cc2ccccc2)c1",
    "Inflammation (PCC) 40 nM": "−0.1081"
  },
  {
    "compound": "CC(C)[Si](C(C)C)(C(C)C)n1ccc(B(O)O)c1",
    "Inflammation (PCC) 40 nM": "−0.0781"
  },
  {
    "compound": "Cn1c(B(O)O)cc2ccccc21",
    "Inflammation (PCC) 40 nM": "−0.126"
  },
  {
    "compound": "NC(=O)c1ccc(B(O)O)cc1",
    "Inflammation (PCC) 40 nM": "−0.0838"
  },
  {
    "compound": "N#Cc1ccc(B(O)O)s1",
    "Inflammation (PCC) 40 nM": "−0.01"
  }
]
